B1: Neutrophil cytosol factor 1 (Homo sapiens), P14598 (parent)
chain: MGDTFIRHIALLGFEKRFVPSQHYVYMFLVKWQDLSEKVVYRRFTEIYEFHKTLKEMFPIEAGAINPENRIIPHLPAPKWFDGQRAAENRQGTLTEYCSTLMSLPTKISRCPHLLDFFKVRPDDLKLPTDNQTKKPETYLMPKDGKSTATDITGPIILQTYRAIANYEKTSGSEMALSTGDVVEVVEKSESGWWFCQMKAKRGWIPASFLEPLDSPDETEDPEPNYAGEPYVAIKAYTAVEGDEVSLLEGEAVEVIHKLLDGWWVIRKDDVTGYFPSMYLQKSGQDVSQAQRQIKRGAPPRRSSIRNAHSIHQRSRKRLSQDAYRRNSVRFLQQRRRQARPGPQSPGSPLEEERQTQRSKPQPAVPPRPSADLILNRCSESTKRKLASAV

- Variants of: B1
- experimentalSetup: with ncf2_human NCF2, P19878
- Sequence (P19878 whole entry): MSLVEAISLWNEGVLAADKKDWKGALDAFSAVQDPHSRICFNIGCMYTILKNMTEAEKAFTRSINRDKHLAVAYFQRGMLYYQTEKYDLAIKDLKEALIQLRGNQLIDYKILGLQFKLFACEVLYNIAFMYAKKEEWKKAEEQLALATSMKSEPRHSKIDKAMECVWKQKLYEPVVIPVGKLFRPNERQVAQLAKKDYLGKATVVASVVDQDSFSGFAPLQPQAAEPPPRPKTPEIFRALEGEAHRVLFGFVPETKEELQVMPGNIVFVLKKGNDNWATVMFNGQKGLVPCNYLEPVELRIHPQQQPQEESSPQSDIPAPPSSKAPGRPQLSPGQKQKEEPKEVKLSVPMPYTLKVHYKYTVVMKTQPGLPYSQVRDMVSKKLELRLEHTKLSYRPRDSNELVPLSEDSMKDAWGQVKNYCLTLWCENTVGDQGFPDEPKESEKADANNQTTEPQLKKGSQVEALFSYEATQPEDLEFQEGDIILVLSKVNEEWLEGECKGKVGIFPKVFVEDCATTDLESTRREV
reportedMetric: effect of a mutation on the interaction

Q. May I ask what effect of a mutation on the interaction has been recorded for P363A ?
A. decreasing interaction

Q. Further, for K383E ?
A. decreasing interaction

Q. Further, for R368A ?
A. decreasing interaction

Q. Further, for K385E ?
A. decreasing interaction
